- tested system: UniProtKB O75469
- assay text: PXR reporter (p3A4-luc luciferase) assay in LS180 cells transiently transfected with wild-type PXR
- recorded conditions: 25 uM
Use true when the recorded aver (mean luciferase signal of H1-H4) is no lower than 50000; use false when it is lower.

[
  {
    "compound": "OC(Cc1cc2ccccc2[nH]1)(c1ccncc1)c1cc2ccccc2[nH]1 (centres unmarked)",
    "class assignment": "true"
  },
  {
    "compound": "C#CCC(O)(c1ccncc1)c1cc2ccccc2n1S(=O)(=O)c1ccccc1 (centres unmarked)",
    "class assignment": "true"
  },
  {
    "compound": "CCOCn1c(C(O)(Cc2cc3ccccc3[nH]2)c2ccncc2)cc2ccccc21 (racemic)",
    "class assignment": "true"
  },
  {
    "compound": "O=C(c1ccncc1)c1cc2ccccc2n1S(=O)(=O)c1ccccc1",
    "class assignment": "true"
  },
  {
    "compound": "O=S(=O)(c1ccccc1)n1c(C(O)Cc2cc3ccccc3[nH]2)cc2ccccc21 (racemic)",
    "class assignment": "true"
  },
  {
    "compound": "CC#CC(O)(c1ccncc1)c1cc2ccccc2n1S(=O)(=O)c1ccccc1 (racemic)",
    "class assignment": "true"
  },
  {
    "compound": "O=S(=O)(c1ccccc1)n1c(C(O)(Cc2cc3ccccc3[nH]2)c2ccncc2)cc2ccccc21 (racemic)",
    "class assignment": "true"
  },
  {
    "compound": "OC(c1ccncc1)(c1cc2ccccc2[nH]1)c1cc2ccccc2[nH]1",
    "class assignment": "false"
  },
  {
    "compound": "O=S(=O)(c1ccccc1)n1c(C(O)c2ccncc2)cc2ccccc21 (racemic)",
    "class assignment": "true"
  },
  {
    "compound": "Cc1[nH]c2ccccc2c1C(c1c(C)[nH]c2ccccc12)c1c(C)[nH]c2ccccc12 [FKK999, reference compound]",
    "class assignment": "false"
  },
  {
    "compound": "CC#CC(O)(c1ccncc1)c1cc2ccccc2n1COCC (centres unmarked)",
    "class assignment": "true"
  }
]

---

- Tested on: Cyp3a11
- assay text: PXR target gene expression in pxr -/- mice after FKK6 gavage
- Type: in vivo, mouse
- recorded conditions: pxr-/- (PXR knockout), mouse, small intestine, oral; 500 μM, 5 doses (60 h), mean, × DMSO; read-out: Cyp3a11 fold induction, Small Intestine

[
  {
    "compound": "C#CCC(O)(c1ccncc1)c1cc2ccccc2n1S(=O)(=O)c1ccccc1 (stereo not shown)",
    "fold induction at 60 h, 500 µM": 0.25
  }
]

---

- tested system: PXR (Homo sapiens, UniProt O75469)
- Sequence (O75469 whole entry): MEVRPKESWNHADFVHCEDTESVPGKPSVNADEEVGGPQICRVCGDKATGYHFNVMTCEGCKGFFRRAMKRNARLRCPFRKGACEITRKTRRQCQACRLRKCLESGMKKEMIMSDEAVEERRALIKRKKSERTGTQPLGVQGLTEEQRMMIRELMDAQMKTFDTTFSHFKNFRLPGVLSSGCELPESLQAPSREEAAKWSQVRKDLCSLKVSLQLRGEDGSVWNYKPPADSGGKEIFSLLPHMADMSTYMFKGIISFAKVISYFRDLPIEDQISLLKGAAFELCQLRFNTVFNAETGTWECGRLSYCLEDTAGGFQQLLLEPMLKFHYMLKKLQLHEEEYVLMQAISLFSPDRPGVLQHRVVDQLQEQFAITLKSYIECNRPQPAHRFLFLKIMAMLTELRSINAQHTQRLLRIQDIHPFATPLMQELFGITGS
- assay text: PXR reporter (p3A4-luc luciferase) assay in LS180 cells transiently transfected with wild-type PXR
- recorded conditions: 1 nM
Reported aver (mean luciferase signal of H1-H4) values are given for each entry in this list.

[
  {
    "compound": "OC(Cc1cc2ccccc2[nH]1)(c1ccncc1)c1cc2ccccc2[nH]1 (stereo not drawn)",
    "aver (mean luciferase signal of H1-H4)": 4648.0
  },
  {
    "compound": "O=C(c1ccncc1)c1cc2ccccc2n1S(=O)(=O)c1ccccc1",
    "aver (mean luciferase signal of H1-H4)": 4417.0
  },
  {
    "compound": "O=S(=O)(c1ccccc1)n1c(C(O)Cc2cc3ccccc3[nH]2)cc2ccccc21 (racemic)",
    "aver (mean luciferase signal of H1-H4)": 3847.5
  }
]

---

- Tested on: mdr1
- assay text: PXR target gene expression in hPXR mice (mice expressing the human PXR gene) after FKK6 gavage
- Format: in vivo, mouse
- recorded conditions: both sexes, C57BL/6-Nr1i2tm1(NR1I2)Arte (hPXR mice), mouse, small intestine, oral, 500 μM, 5 doses (60 h), individual mice; read-out: mdr1 fold induction, Small Intestine

[
  {
    "molecule": "C#CCC(O)(c1ccncc1)c1cc2ccccc2n1S(=O)(=O)c1ccccc1 (stereo not shown) [FKK6]",
    "tested system": "mdr1",
    "fold induction at 60 h, 500 µM": 1.84
  }
]

---

- Test system: Cyp3a11
- assay text: PXR target gene expression in hPXR mice (mice expressing the human PXR gene) after FKK6 gavage
- Type: in vivo, mouse
- recorded conditions: both sexes, C57BL/6-Nr1i2tm1(NR1I2)Arte (hPXR mice), mouse, in vivo, 500 μM, 5 doses (60 h), individual mice; read-out: Cyp3a11 fold induction, Liver
- Method: (Scheer et al, 2010) were administered 10% DMSO (n = 3) or FKK6 (n = 3) in 3 or 5 doses, with each dose interval of 12 h. Each gavage dose volume was 100 μl. 2–4 h after the dosing period, mice were sacrificed, and tissues were harvested for further analysis. The mouse studies were performed three independent times over an 18‐month period. All purchased mice were acclimatized in the Einstein vivarium for ~ 2 weeks before experiments started. […]. […]

[
  {
    "compound": "C#CCC(O)(c1ccncc1)c1cc2ccccc2n1S(=O)(=O)c1ccccc1 (stereo not shown) [FKK6]",
    "tested system": "Cyp3a11",
    "fold induction at 60 h, 500 µM": 1.81
  }
]

---

Reported fold induction at 24 h, 10 µM values are given for each entry in this list.
- tested system: AhR (Homo sapiens, UniProt P35869)
- Construct: endogenous in cells; host or cells: AZ-AHR (HepG2)
- Sequence (P35869 11-848): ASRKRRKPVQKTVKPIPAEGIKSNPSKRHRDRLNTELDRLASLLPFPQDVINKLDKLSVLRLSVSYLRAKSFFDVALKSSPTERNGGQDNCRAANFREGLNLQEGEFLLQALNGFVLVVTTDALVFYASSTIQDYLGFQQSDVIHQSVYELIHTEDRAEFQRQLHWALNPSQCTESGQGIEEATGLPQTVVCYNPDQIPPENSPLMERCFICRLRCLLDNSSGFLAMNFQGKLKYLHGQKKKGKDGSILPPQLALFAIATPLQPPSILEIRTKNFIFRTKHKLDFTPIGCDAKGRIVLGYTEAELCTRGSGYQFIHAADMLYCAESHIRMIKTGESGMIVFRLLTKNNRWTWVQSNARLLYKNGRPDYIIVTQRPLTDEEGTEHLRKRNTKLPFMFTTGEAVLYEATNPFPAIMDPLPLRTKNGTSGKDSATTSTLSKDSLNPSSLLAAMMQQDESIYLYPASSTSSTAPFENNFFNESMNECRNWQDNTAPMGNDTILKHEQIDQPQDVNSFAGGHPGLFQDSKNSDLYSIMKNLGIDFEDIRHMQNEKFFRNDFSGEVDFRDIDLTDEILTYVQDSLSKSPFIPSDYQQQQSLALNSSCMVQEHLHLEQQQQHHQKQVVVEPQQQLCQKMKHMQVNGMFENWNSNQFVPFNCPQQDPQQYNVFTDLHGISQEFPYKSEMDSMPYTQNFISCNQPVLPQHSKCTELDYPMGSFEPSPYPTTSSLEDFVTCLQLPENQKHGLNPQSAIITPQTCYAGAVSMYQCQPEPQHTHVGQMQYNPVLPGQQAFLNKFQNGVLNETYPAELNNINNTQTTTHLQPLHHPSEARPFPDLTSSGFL
- assay text: AhR reporter assay, HepG2 cells stably expressing pCYP1A1 luciferase (AZ-AHR)
- Assay type: cell-based
- recorded conditions: human; AZ-AHR cells, 10 µM, fold vs DMSO

[
  {
    "compound": "C#CCC(O)(c1ccncc1)c1cc2ccccc2n1S(=O)(=O)c1ccccc1 (stereo not drawn)",
    "fold induction at 24 h, 10 µM": 3.2
  },
  {
    "compound": "Cc1[nH]c2ccccc2c1C(c1c(C)[nH]c2ccccc12)c1c(C)[nH]c2ccccc12 [FKK999, reference compound]",
    "fold induction at 24 h, 10 µM": 28.2
  },
  {
    "compound": "O=C(c1ccncc1)c1cc2ccccc2n1S(=O)(=O)c1ccccc1",
    "fold induction at 24 h, 10 µM": 1.2
  }
]

---

- Test system: mdr1a
- assay text: PXR target gene expression in C57BL/6 mice after FKK6 gavage
- Type: in vivo, mouse
- recorded conditions: both sexes, C57BL/6J, mouse, large intestine, oral, 500 μM, 5 doses (60 h), individual mice; read-out: mdr1a fold induction, Large Intestine

[
  {
    "molecule": "C#CCC(O)(c1ccncc1)c1cc2ccccc2n1S(=O)(=O)c1ccccc1 (stereo not shown)",
    "fold induction at 60 h, 500 µM": 1.27
  }
]

---

- Test system: mdr1
- assay text: PXR target gene expression in hPXR mice (mice expressing the human PXR gene) after FKK6 gavage
- Type: in vivo, mouse
- recorded conditions: both sexes, C57BL/6-Nr1i2tm1(NR1I2)Arte (hPXR mice), mouse, large intestine, oral, 500 μM, 5 doses (60 h), individual mice; read-out: mdr1 fold induction, Large Intestine

[
  {
    "compound": "C#CCC(O)(c1ccncc1)c1cc2ccccc2n1S(=O)(=O)c1ccccc1 (stereo not shown)",
    "fold induction at 60 h, 500 µM": 1.96
  }
]
